For reference, the following Ki results for 5-hydroxytryptamine receptor 2B (Homo sapiens, UniProt P41595) were taken from various sources.
Parameter: Ki (µM)

Some compounds with recorded Ki:
>>> df
                                   compound  parameter  measure_unit  number
0  CC(C#N)(c1cccc(F)c1)N1CCC(Nc2ncnc3sc4c(c23)CCCC4)CC1 (stereo not drawn)         Ki            µM    0.12
1  CC(c1c(F)cccc1F)N1CCC(Nc2ncnc3sc4c(c23)CCCC4)CC1 (stereo not drawn)         Ki            µM   0.044
2  CN1CCN(c2ccc3c(c2)CN(S(=O)(=O)c2cc(Cl)cc(Cl)c2)CC3)CC1         Ki            µM   0.206

I: CC(C)Cc1cc2c(NC3CCN(C(C)c4cccc(F)c4)CC3)ncnc2s1 (stereo not drawn)
II: Cc1c(C(=O)N=C(N)N)cc(-c2ccccc2)n1Cc1ccco1
III: Cc1ccccc1OC[C@H]1CN(CC(=O)N2c3ccccc3CC2C)CCO1 (stereo partly drawn)
Order the items by recorded Ki; the first position goes to the largest value. Form field (ranking): labels in requested order.
III, II, I

1: Fc1cc(F)cc(CN2CCC(Nc3ncnc4sccc34)CC2)c1
2: CC(C)n1c2ccccc2c2ccc(C(=O)N=C(N)N)cc21
3: CCCN1CCN(c2ccc3c(c2)C(N(C)C(=O)OCc2ccccc2)CCC3)CC1 (stereo not drawn)
4: Cc1sc2ncnc(NC3CCN(Cc4ccccc4C#N)CC3)c2c1C
Please list these in order of increasing Ki. Thank you! # the answer lists labels in the order requested
2, 1, 3, 4
(2: 0.0046 µM, 1: 0.018 µM, 3: 0.1 µM, 4: 0.21 µM)

A: Fc1cccc(CN2CCC(Nc3ncnc4sc(Cl)cc34)CC2)c1
B: Cc1c(C(=O)N[C@H]2CCN(C)C2)cc(C(C)(C)C)n1CCc1ccc(F)cc1
Would you kindly point out which of A and B has the smaller Ki figure? Mark your selection by writing its label.
A

P: CCc1c(C)n(Cc2ccc(F)cc2)c2ccc(C(=O)N[C@H]3CCN(C)C3)cc12
Q: Cc1c(C(=O)NCCN(C)C)cc(C(C)(C)C)n1CCc1ccc(F)cc1
Of P and Q , which shows the smaller Ki value? Write the label of whichever entry you select.
P

a: Cc1c(C(=O)NC[C@H]2CCCN2C)cc(C(C)(C)C)n1CCc1ccc(F)cc1
b: c1ccc(CN2CCC(Nc3ncnc4sc5c(c34)CCCC5)CC2)cc1
Sorting ascending by Ki, which comes first: a or b ? Answer with the label corresponding to your selection.
a
